Let's look at some compounds and their measured inhibition at 0.01 µM.
Test system: HIV-IIIb
Assay: Test A: Antiviral Assay in MT4 Cells
Format: cell-based, HIV-1
Settings: Human immunodeficiency virus 1, MT4, 120 h; inhibition of virus-induced cell killing, from dose response curve at 0.01 μM (10 nM); MT-4 cells, HIV-IIIb, 5 days; values normalized to 100%; read-out: % inhibition at 0.01 μM
Description: MT-4 cells were next mixed with HIV-IIIb at a multiplicity of infection (m.o.i.) of 0.003 for 1 hour, after which time 35 μL of virus/cell mixture (2000 cells) was immediately added to each well containing 40 μL of diluted compound. The plates were then incubated at 37° C. for 5 days. […] Cell lysis was carried out by incubating at room temperature for 10 min and then chemiluminescence was read.
State just the number; it will be interpreted in %.

{"columns": ["smilesRepr", "targetDesc", "inhibition at 0.01 µM [%]"],
 "data": [
  ["Cn1nc(NS(=O)(=O)C2CC2)c2c(Cl)ccc(-c3ccc(C#CC(C)(C)S(=O)(=O)C4CC4)nc3[C@H](Cc3cc(F)cc(F)c3)NC(=O)Cn3nc(C(F)F)c4c3C(F)(F)[C@@H]3C[C@H]43)c21", "HIV-IIIb", 94]
]}

## Input Form field: reported inhibition at 0.01 µM of CC(C)(C#Cc1ccc(-c2ccc(Cl)c3c(NS(=O)(=O)C4CC4)nn(CC(F)F)c23)c([C@H](Cc2cc(F)cc(F)c2)NC(=O)Cn2nc(C(F)(F)F)c3c2C(F)(F)[C@@H]2C[C@H]32)n1)S(=O)(=O)C1CC1
## Output 100

---

test system: HIV-IIIb; experiment: Test A: Antiviral Assay in MT4 Cells; assay type: cell-based, HIV-1; settings: Human immunodeficiency virus 1, MT4, 120 h; inhibition of virus-induced cell killing, from dose response curve at 0.01 μM (10 nM); MT-4 cells, HIV-IIIb, 5 days; values normalized to 100%; read-out: % inhibition at 0.01 μM
quantity: inhibition at 0.01 µM (%)
Give just the numeric value; % need not be written.

Example entries begin here.
{"columns": ["smilesRepr", "quantityUnit", "inhibition at 0.01 µM"],
 "data": [
  ["Cn1nc(NS(C)(=O)=O)c2c(Cl)ccc(-c3ccc(C#CC(C)(C)S(=O)(=O)C4CC4)nc3[C@H](Cc3cc(F)cc(F)c3)NC(=O)Cn3ncc4ccccc43)c21", "%", 3],
  ["CC(C)(C#Cc1ccc(-c2ccc(Cl)c3c(NS(=O)(=O)C4CC4)nn(C4COC4)c23)c([C@H](Cc2cc(F)cc(F)c2)NC(=O)Cn2nc(C(F)(F)F)c3c2C(F)(F)[C@@H]2C[C@H]32)n1)S(=O)(=O)C1CC1", "%", 92],
  ["CC(C)(C#Cc1ccc(-c2ccc(Cl)c3c(NS(=O)(=O)C4CC4)nn(CC(F)(F)F)c23)c([C@H](Cc2cc(F)cc(F)c2)NC(=O)Cn2nc(C(F)(F)F)c3c2C(F)(F)[C@@H]2C[C@H]32)n1)S(=O)(=O)C1CC1", "%", 93],
  ["Cn1nc(NS(C)(=O)=O)c2c(Cl)ccc(-c3ccc(C#CC(C)(C)S(=O)(=O)C4CC4)nc3[C@H](Cc3cc(F)cc(F)c3)NC(=O)Cn3nc(C(F)F)c(Cl)c3C(F)F)c21", "%", 0],
  ["CC(C)(C#Cc1ccc(-c2ccc(Cl)c3c(NS(=O)(=O)C4CC4)nn(CC(F)(F)F)c23)c([C@H](Cc2cc(F)cc(F)c2)NC(=O)Cn2nc(C(F)F)c3c2C(F)(F)[C@@H]2C[C@H]32)n1)S(=O)(=O)C1CC1", "%", 97]
]}

## Input Fill blank: measured inhibition at 0.01 µM of the molecule Cn1nc(NS(C)(=O)=O)c2c(Cl)ccc(-c3ccc(C#CC(C)(C)S(=O)(=O)C4CC4)nc3[C@H](Cc3cc(F)cc(F)c3)NC(=O)Cc3nc4ccccc4[nH]3)c21 is ____.
## Output 18

## Input If you can, please state the reported inhibition at 0.01 µM value of CCS(=O)(=O)Nc1nn(CC(F)F)c2c(-c3ccc(C#CC(C)(C)S(=O)(=O)C4CC4)nc3[C@H](Cc3cc(F)cc(F)c3)NC(=O)Cn3nc(C(F)F)c4c3C(F)(F)[C@@H]3C[C@H]43)cccc12 .
## Output 67

## Input I have this molecule here, CC1(S(=O)(=O)Nc2nn(CC(F)(F)F)c3c(-c4ccc(C#CC(C)(C)S(=O)(=O)C5CC5)nc4[C@H](Cc4cc(F)cc(F)c4)NC(=O)Cn4nc(C(F)F)c5c4C(F)(F)CCC5(F)F)ccc(Cl)c23)CC1 , and I need its recorded inhibition at 0.01 µM.
## Output 97

## Input Look at this molecule and give its reported inhibition at 0.01 µM. Cn1nc(NS(=O)(=O)C2CC2)c2c(Cl)ccc(-c3ccc(C#CC(C)(C)S(=O)(=O)C4CC4)nc3[C@H](Cc3cc(F)cc(F)c3)NC(=O)Cn3nc(C(F)(F)F)c4c3C(F)(F)[C@@H]3C[C@H]43)c21
## Output 100
